# MEASURED_TARGET: Neutrophil elastase (Homo sapiens)
# Sequence (P08246 whole entry): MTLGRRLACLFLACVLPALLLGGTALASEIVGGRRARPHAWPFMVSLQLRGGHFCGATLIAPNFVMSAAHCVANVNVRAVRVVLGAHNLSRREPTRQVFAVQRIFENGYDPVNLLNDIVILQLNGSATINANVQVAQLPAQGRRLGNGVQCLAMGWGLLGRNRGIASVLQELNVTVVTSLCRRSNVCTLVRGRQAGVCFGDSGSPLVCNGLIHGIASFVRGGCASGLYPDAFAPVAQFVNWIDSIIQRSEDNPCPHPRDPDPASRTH
# EXPERIMENT_SUMMARY: Concentration required for inhibition of human leukocyte elastase (HLE)
PROPERTY_MEASURED: pKi
Kindly note that pKi refers to -log10 of the concentration in mol/L and answer with the value alone.

[[record]]
sample_smiles = "CC[C@@H]1C(=O)N(C(=O)NC)[C@H]1Oc1ccc(C(=O)O)cc1"
reported_measurement = 4.78


Consider the compound `CC[C@@H]1C(=O)N[C@H]1Oc1ccc(C(=O)O)cc1` and give its recorded pKi. 3.54

---

# EXPERIMENT_SUMMARY: Half-life period was determined, by hydrolyzing under mild conditions (pH = 8.0, 25 degrees Celsius)
# Format: ADME
PROPERTY_MEASURED: half-life

Observe how each entry below is paired with its result.
[[record]]
compound = "CC[C@@H]1C(=O)N(C(C)=O)[C@H]1Oc1ccc(C(=O)O)cc1"
property_measured = "half-life"
reported_measurement = "~9 h"

[[record]]
compound = "CC[C@@H]1C(=O)N[C@H]1Oc1ccc(C(=O)O)cc1"
property_measured = "half-life"
reported_measurement = "~32 h"


Then this compound:
Consider the compound CC[C@@H]1C(=O)N(C(C)=O)[C@H]1OC(C)=O (racemic) and give its recorded half-life. ~2 h
